Each recorded value in this set is attributed to PubChem BioAssay (NCI).

test system: NCI/ADR-RES ovarian; assay: NCI-60 one-dose screen, 48 h (100 = growth as untreated, 0 = no growth, -100 = all killed); conditions: 10 µM unless noted
This is part of a sample that, as a whole, favours compounds with a hit. Of some 83,000 tested, about 20% had one in any assay. Active and inactive are the calls of the source. Rule for the calls: active = growth percent below 10; inactive = the rest.
property_name: growth

Query: Supply growth measured with NCI/ADR-RES ovarian for CC12CCCC(CC(=O)c3[nH]c4ccccc4c31)C2 (stereo not given) .
Result: 5.24% (active)

Query: Supply growth measured with NCI/ADR-RES ovarian for `Fc1ccc(Nc2nc(NCCNc3ccnc4cc(Cl)ccc34)nc(N3CCOCC3)n2)cc1` .
Result: 77.8% (inactive)

Query: Supply growth measured with NCI/ADR-RES ovarian for `COc1cccc(-c2nc3sccn3c2-c2ccnc(NCCCNS(=O)(=O)c3ccc(F)cc3)c2)c1` .
Result: 10.2% (inactive)

Query: Supply growth measured with NCI/ADR-RES ovarian for `CC(=O)c1cc2c(N)c(C(=O)Nc3cccc4c3OCCO4)sc2nc1C` .
Result: 96.8% (inactive)

Query: Supply growth measured with NCI/ADR-RES ovarian for Cc1csc(NC(c2ccccc2)c2c(C)nc3ccccn23)n1 (stereo not given) .
Result: 99% (inactive)
